target: T1, human CD1a protein (pool B) (human, UniProt P06126 18-295, limits assumed); assay: ELISA, 100 µg/ml antibody
T1 construct: Recombinant protein of the ELISA (coated) and the Biacore T200 titration; whole entry named; also called human CD1a pool B; full length CD1a
T1 sequence (P06126 18-295 limits assumed): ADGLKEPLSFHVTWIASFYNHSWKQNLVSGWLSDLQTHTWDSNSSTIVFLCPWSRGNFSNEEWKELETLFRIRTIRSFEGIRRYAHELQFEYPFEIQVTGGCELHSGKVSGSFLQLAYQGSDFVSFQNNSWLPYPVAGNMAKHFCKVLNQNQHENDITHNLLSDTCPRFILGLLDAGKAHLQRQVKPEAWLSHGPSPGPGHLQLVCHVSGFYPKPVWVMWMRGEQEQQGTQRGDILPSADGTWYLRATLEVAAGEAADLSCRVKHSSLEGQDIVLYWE
Kindly supply the reported Optical Density (OD) values for the records listed here.

binder	Optical Density (OD)
110 (VR12112) (antibody, V domains shown, also called OX110; antibody 110) VH: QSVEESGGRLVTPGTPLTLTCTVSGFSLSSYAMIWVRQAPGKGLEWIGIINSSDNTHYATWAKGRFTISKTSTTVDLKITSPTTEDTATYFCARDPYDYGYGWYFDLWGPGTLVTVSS VL: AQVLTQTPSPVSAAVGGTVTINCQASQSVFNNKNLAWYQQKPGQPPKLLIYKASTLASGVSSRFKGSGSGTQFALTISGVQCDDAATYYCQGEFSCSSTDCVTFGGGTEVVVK	1.23 OD

Provide Optical Density (OD) for all items below, preserving their order.
1. 77A (VR11851) (antibody, V domains shown, also called OX77a; antibody 77a) VH: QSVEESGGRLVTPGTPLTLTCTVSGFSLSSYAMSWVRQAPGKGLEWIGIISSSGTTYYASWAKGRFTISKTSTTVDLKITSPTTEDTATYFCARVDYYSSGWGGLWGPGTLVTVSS VL: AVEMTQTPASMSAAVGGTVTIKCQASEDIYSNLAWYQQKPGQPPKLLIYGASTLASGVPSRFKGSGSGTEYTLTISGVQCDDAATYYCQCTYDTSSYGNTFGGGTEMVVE
2. 116 (VR12117) (antibody, V domains shown, also called OX116) VH: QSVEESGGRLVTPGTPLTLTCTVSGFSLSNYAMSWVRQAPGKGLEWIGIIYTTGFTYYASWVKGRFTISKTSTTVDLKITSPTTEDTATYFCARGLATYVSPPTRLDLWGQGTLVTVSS VL: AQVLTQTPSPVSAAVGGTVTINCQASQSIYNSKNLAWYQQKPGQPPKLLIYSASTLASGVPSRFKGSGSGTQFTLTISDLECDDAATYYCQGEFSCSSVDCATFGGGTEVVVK
3. 111 (VR12113) (antibody, V domains shown, also called OX111) VH: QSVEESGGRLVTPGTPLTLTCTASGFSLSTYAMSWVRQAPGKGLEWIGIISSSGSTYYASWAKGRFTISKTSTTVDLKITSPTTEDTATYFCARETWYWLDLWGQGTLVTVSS VL: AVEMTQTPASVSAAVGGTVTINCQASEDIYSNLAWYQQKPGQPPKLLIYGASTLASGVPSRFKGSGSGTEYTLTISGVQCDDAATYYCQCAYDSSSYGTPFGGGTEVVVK

Result:
1. 1.39 OD
2. 1.15 OD
3. 1.12 OD
